meta.source: patent US20210388087A1

Biological target: T1, CD3 epsilon homodimer protein (UniProt P07766 23-126)
T1 construct: also called CD3 (CD3 epsilon)
T1 sequence (P07766 23-126): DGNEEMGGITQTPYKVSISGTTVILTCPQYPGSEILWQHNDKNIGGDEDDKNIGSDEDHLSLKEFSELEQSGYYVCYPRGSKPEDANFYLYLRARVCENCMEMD
Test: SPR Biacore T200, CD3e homodimer on chip, vs unaltered GLS3000 antibody
Would you mind labelling by ratio of amounts bound (Z=Y/X)? At or over 0.6 is met, under is not met.

Check if ratio of amounts bound (Z=Y/X) >= 0.6 (inclusive). Item: GLS3000 R29T (antibody, name in Kabat numbering, V domains shown, one-arm IgG as m2) VH: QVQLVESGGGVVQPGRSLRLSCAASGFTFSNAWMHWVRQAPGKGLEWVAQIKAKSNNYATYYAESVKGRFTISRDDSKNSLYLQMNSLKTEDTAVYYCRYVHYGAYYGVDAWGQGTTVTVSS VL: DIVMTQSPLSLPVTPGEPASISCRSSQSLVHSNTNTYLHWYQQKPGQAPRLLIYKVSNRFSGVPDRFSGSGSGTDFTLKISRVEAEDVGVYYCGQGTQVPYTFGQGTKLEIK met

One more binder: GLS3000 Q27E (antibody, name in Kabat numbering, V domains shown, one-arm IgG as m2) VH: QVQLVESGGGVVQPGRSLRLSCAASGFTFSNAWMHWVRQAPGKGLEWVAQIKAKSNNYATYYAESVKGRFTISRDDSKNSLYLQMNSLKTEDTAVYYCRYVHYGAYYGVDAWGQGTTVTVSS VL: DIVMTQSPLSLPVTPGEPASISCRSSESLVHSNRNTYLHWYQQKPGQAPRLLIYKVSNRFSGVPDRFSGSGSGTDFTLKISRVEAEDVGVYYCGQGTQVPYTFGQGTKLEIK met

One more binder: GLS3000 Q27D (antibody, name in Kabat numbering, V domains shown, one-arm IgG as m2) VH: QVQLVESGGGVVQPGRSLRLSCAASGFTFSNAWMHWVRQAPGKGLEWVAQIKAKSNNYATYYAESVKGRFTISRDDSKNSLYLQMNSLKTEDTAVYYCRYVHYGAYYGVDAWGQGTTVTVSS VL: DIVMTQSPLSLPVTPGEPASISCRSSDSLVHSNRNTYLHWYQQKPGQAPRLLIYKVSNRFSGVPDRFSGSGSGTDFTLKISRVEAEDVGVYYCGQGTQVPYTFGQGTKLEIK met

One more binder: GLS3000 N30P (antibody, name in Kabat numbering, V domains shown, one-arm IgG as m2) VH: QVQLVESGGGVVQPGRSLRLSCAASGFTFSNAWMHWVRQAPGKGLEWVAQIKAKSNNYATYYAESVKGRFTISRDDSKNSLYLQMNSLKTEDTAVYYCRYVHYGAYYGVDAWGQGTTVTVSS VL: DIVMTQSPLSLPVTPGEPASISCRSSQSLVHSNRPTYLHWYQQKPGQAPRLLIYKVSNRFSGVPDRFSGSGSGTDFTLKISRVEAEDVGVYYCGQGTQVPYTFGQGTKLEIK not met

One more binder: GLS3000 Y96D (antibody, name in Kabat numbering, V domains shown, one-arm IgG as m2) VH: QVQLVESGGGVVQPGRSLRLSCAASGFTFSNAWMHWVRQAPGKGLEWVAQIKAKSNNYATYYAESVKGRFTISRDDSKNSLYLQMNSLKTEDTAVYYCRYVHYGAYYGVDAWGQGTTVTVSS VL: DIVMTQSPLSLPVTPGEPASISCRSSQSLVHSNRNTYLHWYQQKPGQAPRLLIYKVSNRFSGVPDRFSGSGSGTDFTLKISRVEAEDVGVYYCGQGTQVPDTFGQGTKLEIK not met
